Value source: patent US4602026A

Assay: in vivo
Particulars: rat, in vivo, ip, intraperitoneal injection, female
Metric Name: LD50 (mg/kg)
Response body: numeric value in mg/kg, unit text excluded.

Annotate the compound CCCCCOc1ccc(C2SC(=O)NC2=O)cc1OCC (stereo not shown) with its measured LD50.
520

###

Assay: in vivo
Particulars: rat, in vivo, sc, subcutaneous injection, male
Metric Name: LD50 (mg/kg)
Response body: numeric value in mg/kg, unit text excluded.

Annotate the molecule CCCCCOc1ccc(C2SC(=O)NC2=O)cc1OCC (stereo not shown) with its measured LD50.
3210

###

Assay: Acute toxicity test, mouse
Format: in vivo
Particulars: mouse, in vivo, ip, intraperitoneal injection, male
Metric Name: LD50 (mg/kg)
Response body: numeric value in mg/kg, unit text excluded.

Annotate the compound CCCCCOc1ccc(C2SC(=O)NC2=O)cc1OCC (stereo not shown) with its measured LD50.
560

###

Assay: Acute toxicity test, mouse
Format: in vivo
Particulars: mouse, in vivo, sc, subcutaneous injection, male
Metric Name: LD50 (mg/kg)
Response body: numeric value in mg/kg, unit text excluded.

Annotate the compound CCCCCOc1ccc(C2SC(=O)NC2=O)cc1OCC (stereo not shown) with its measured LD50.
1720

###

Assay: Acute toxicity test, mouse
Assay type: in vivo
Particulars: mouse, in vivo, po, oral administration, male
Metric Name: LD50 (mg/kg)
Response body: numeric value in mg/kg, unit text excluded.

Annotate the compound CCCCCOc1ccc(C2SC(=O)NC2=O)cc1OCC (stereo not shown) with its measured LD50.
2320

###

Assay: in vivo
Particulars: rat, in vivo, ip, intraperitoneal injection, male
Metric Name: LD50 (mg/kg)
Response body: numeric value in mg/kg, unit text excluded.

Annotate the compound CCCCCOc1ccc(C2SC(=O)NC2=O)cc1OCC (stereo not shown) with its measured LD50.
490

###

Assay: in vivo
Particulars: rat, in vivo, po, oral administration, female
Metric Name: LD50 (mg/kg)
Response body: numeric value in mg/kg, unit text excluded.

Annotate the compound CCCCCOc1ccc(C2SC(=O)NC2=O)cc1OCC (stereo not shown) with its measured LD50.
4330

###

Assay: Acute toxicity test, mouse
Type: in vivo
Particulars: mouse, in vivo, sc, subcutaneous injection, female
Metric Name: LD50
Please append the unit to your numeric answer.

Annotate the compound CCCCCOc1ccc(C2SC(=O)NC2=O)cc1OCC (stereo not shown) with its measured LD50.
2270 mg/kg
